# Run Description: yeast display, Sf9 membrane polyspecificity reagent, FACS + sequencing; frameworks hold sequencing errors
Property Measured: polyreactivity (PSR sort gate)

Solved cases (4 shown):
Primary Sequence: QGQLVESGGGLVQAGGSLRFSCAASGRIFSVYDMGWYRQAPGTERELVAAIDTSDGSTNYADSVKGRFTISRDNAKNSVYLQMNSLKPEDTAVYYCNATDSYVPFDYWGQGTQVTVSS
polyreactivity (PSR sort gate): low polyreactivity

Primary Sequence: QVQLVESGGGLVQAGGSLRLSCAASGGIFPYYAMGWYRQAPGKERELVADISSGGSTYYADSVKGRFTISRDNAKNSVYLQMNSLKPDDTAVYYCAADAGQYFTYSGDDNHDYWGQGTQVTVSS
polyreactivity (PSR sort gate): low polyreactivity

Primary Sequence: QVQLVESGGGLVEAGGSLRLSCAASGFTFYHNAMGWYRPAPGKERELVAAISSGGTTNYADSVKGRFTISRDNAKNTVYLQMNSLTPEDTAVYYCAARGWGPTRAYDYWGQGTQVTVSS
polyreactivity (PSR sort gate): high polyreactivity

Primary Sequence: QVQLVESGGGLVQAGGSLRLSCAASGSTFIVNAMGWYRQAPGKERELVAAISRGGSTYYADSVKGRFTISRDNAKNTVYLQMNSLKPEHTAVYYCAARIWRTRRYDYWGQGTQVTVSS
polyreactivity (PSR sort gate): high polyreactivity

Please examine the following record next.
QUERY: Query: polyreactivity (PSR sort gate); subject: QVQLVESGGGLVQAGGSLRLSCAASGSIFSGYMGWYRQAPGKERELVATITSGGSTYADSVKGRFTISRDNAKNTVYLQMNSLKPEDTAVYYCAADVSFYTSKYDYWGQGTQVTVSS
RESULT: low polyreactivity

====

# Run Description: yeast display, Sf9 membrane polyspecificity reagent, FACS + sequencing; frameworks hold sequencing errors
Property Measured: polyreactivity (PSR sort gate)

Primary Sequence: QVQLVESGGGLVQAGGSLRLSCAASGSTLVTYAMGWYRQAPGKERELVAAISWRGGSTYYADSVKGRFTISRDNAKNTVYLQMNSLKPEDTAVYYCIKLRAYKESETYYYWGQGTQVTVSS
Property Measured: polyreactivity (PSR sort gate)
Value Observed: low polyreactivity
--
Primary Sequence: QVQLVESGGGLVQAGGSLRLSCAASGSTSYGYAMGWYRQAPGKERELVAAISYSGSSTYYADSVKGRFTISRDNAKNTVYLQMNSLKPEDTAVYYCNAKVYPGVGPKHRYDYWGQGTQVTVSS
Property Measured: polyreactivity (PSR sort gate)
Value Observed: low polyreactivity
--
Primary Sequence: QVQLVESGGGLVQAGGSLRLSCAASGRTLHANTMGMYRQAPGKERELVAAITRGGGNTYYADSVKGRFTISRDNAKNTVYLQMNSLKPEDTAVYYCNADVSGYLWYEYDYWGQGTQVTVSS
Property Measured: polyreactivity (PSR sort gate)
Value Observed: low polyreactivity

====

# Run Description: yeast display, Sf9 membrane polyspecificity reagent, FACS + sequencing; frameworks hold sequencing errors
Property Measured: polyreactivity (PSR sort gate)

Solved cases (8 shown):
Primary Sequence: QVQLVESGGVLVQAGGSLRLSCAASGFTFWLYAMGWYRQAPGKERELVAAISSGGGSTYYADSVKGRFTNSRDNAKNTVYLQMNSLKPEDTAVYYCNRYYYYGYDWGQGTQVTVSS
polyreactivity (PSR sort gate): high polyreactivity

Primary Sequence: QVQLLESGGGLVQAGGSLRLSCAASVSTFLYYTMGWYRQATGKQRELVAAISDDGSTSYADSVKGRFTISRDNAKITVYLQMNSLKPEDTAVYYCAARFYHNRYTFYDFYTLYPYYYWGQGTQVTVSS
polyreactivity (PSR sort gate): low polyreactivity

Primary Sequence: QVQLVESGAGLVQAGGSLRLSCAASGSTFTLNAMGWYRQAPGKERELVADISWSSGRTYYADSVKGRFTISRDNAKNTVDLQMNSLNPEDTAVYYCATDDFWIVKFYAYYPEFDYWGQVTQVTVSS
polyreactivity (PSR sort gate): low polyreactivity

Primary Sequence: QVQLVESGGGLVQAGGSLRLSCAASGSTFEYNDMGWYRQAPGKERELVAAISSGGDTNYADSVKGRFTISRDNAKITVYLQMNSLKPEDTAVYYCAADDWAPYRWYYGYAGYYYWGQGTLVTVSS
polyreactivity (PSR sort gate): low polyreactivity

Primary Sequence: QVQLVESVGGLVQAGGSLRLSCAASVRTFSSYAMGWYRKPPGKERELVAVITSGSSTHYADSVKGRFTISRDNAKNTVYLQMNSLKPEDTAVYYCAARDIREIDCISYWYDYWGQGTQVTVSS
polyreactivity (PSR sort gate): high polyreactivity

Primary Sequence: QVQLVESGGGLVQAGGSLRLSCGASGRTFAIYVMGWYRQAPGKERELVAAISRGGSTYYADSVKGRFTISRDNAKNTVYLQMNSLKPEDTAVYYCAAGTGTTSRYYYWGQGTQVTVSS
polyreactivity (PSR sort gate): high polyreactivity

Primary Sequence: QVQLVESGGGLVQAGGSLRLSCAASGLIFDWYAMGWYRQAPGKERELVADISYSGGSTNYADSVKGRFTISRDNAKNTVYLQMNSLKPEDTAVYYCAADDYWTPFGYWGQGTQVTVSS
polyreactivity (PSR sort gate): low polyreactivity

Primary Sequence: QVQLVEAGGGLVQAGGSLRLSCAASGRIFYYYAMGWYSQAPGKEREFVAAIRISGGSKNYADSVKGRFTISRDNAKNNVYLQMNSLKPEETAVYYSAARSKYSGIRRAYDYWGQGTQVTVSS
polyreactivity (PSR sort gate): high polyreactivity

QUERY: Query: polyreactivity (PSR sort gate); subject: QVQLEESGGGLVQAGGSIRLSCAASVSTFVGNAMGWYRKAPGKETEFVATISNSGGRTYYADSVKGRFTISRDNSKNTVYLQMNSLKPEDTAVYFCAADHPAFCPGYSFDYWGQGTQVTVTS
RESULT: low polyreactivity

QUERY: Query: polyreactivity (PSR sort gate); subject: QVQLVESGGGLVQAGGSLRLSCAASGYISWAYVMGWYIQAPGKERELVAAISSGTSTYYADSVKGRFTISRDNAKNTVYLQMNSLKPEDTAVYYCAAYYYSYPTNGGYGYWGQGTQVTVSS
RESULT: low polyreactivity

====

# Run Description: yeast display, Sf9 membrane polyspecificity reagent, FACS + sequencing; frameworks hold sequencing errors
Property Measured: polyreactivity (PSR sort gate)

Solved cases (10 shown):
Primary Sequence: QVQLVESVGGLVQAGGSLRLSCAASGRTFWWYTMGWYRQAPGKERELVAVISSTGGRTYYADSVKGSFTISRDNAKNTVYLQMNSLKPEDTAVYYCAAEYVSAKWEYGYWGQGTQVTVSS
Value Observed: low polyreactivity
--
Primary Sequence: QVQLVESGGGLVQAGGSLRLSCAASGGTFHSNAMGWYRQAPGKERELVASINWSGGSTYYADSVKGRFTISRDNAKNTDYLQMNSLKPEDTAVYYCAARESYPGYGYDHWGQGTQVTVSS
Value Observed: low polyreactivity
--
Primary Sequence: QVQLVESGGGLVQAGGSLRLTCDASGITYYGYAIGWSRQAPGKEREWVAGINNGGSTTYADSVKGRFTISRDNAKITVYLQMNSVKPEDTAVYYCAADPVYLNKLLYYVGQAYYYWGQGTQVTVSS
Value Observed: high polyreactivity
--
Primary Sequence: QVQLVESGGGLVQAGGSLRLSCAASGRIFAVNAMGWYRQAPGKERELVATINSGGNTNYADSVKGRFTISRDNAKNTVYLQMNSLKPVDTAVYYCAARAFSAWLEMDYWGQGTQVTVSS
Value Observed: low polyreactivity
--
Primary Sequence: QVQLVESGGGLVQAGGSLRLSCAASGFTFWRNTMGWYRQAPGKERELVAGISGSGGSTYYADSVKGRFTISRDNAKNTVYLQMNSLKPEDTAVYYCAVRGGYTWPTYNYWGQGTQVTVSS
Value Observed: high polyreactivity
--
Primary Sequence: QVQLVESGGGLVQAGGSLRLSCAASGFTFTGYAMGWYRQAPGKERELVAVISETGGSTYADSVKGRFTISRDNAKNTVYLQMNSLKPEDTAVYYCNARSGYYLRYYDYDYWGQGTQVTVSS
Value Observed: low polyreactivity
--
Primary Sequence: QVQHVESGGGLVQAGGSLRLSCAASGSIFRRYTMGWYRQAPGKERELVAAISRVGNTNYADSVKGRFTISRDNAKNTVYLQMNSLKPEDTAVYYCAARAIGYRYTPGLNYWGQGTQVTVSS
Value Observed: high polyreactivity
--
Primary Sequence: QVQLVESGGGLVQAGGSLRLSCAASGSIFNYYAMGWYRQAPGKERELVAGITSVGSTYYADSVKGRFTISRDNAKNTVYLQMNSLKPEDTAVYYCAAGYWYGMYYWGQGTQVTVSS
Value Observed: high polyreactivity
--
Primary Sequence: QVQLVESGGGLVQAGGSLRLSCAASGFIFPNYAMGWYRQAPGKEREFVASISWSGGSTYYADSVKGRFTISRDNAKNTVYLQMNSLKPEDTEVYYCNAVAFFNHGAGEDYWGQGTQVTVSS
Value Observed: high polyreactivity
--
Primary Sequence: QVQLVESGGGLVQAGGSLRLSCAASGRIFPWYAMGWYRQAPGKERELVATISSSGRTNYADSVKGRFTISRDNAKNTVYLQLNSLQPEDTAVYFCAATLYHYWYADFDYWGQGTQVTVSS
Value Observed: high polyreactivity

Please examine the following record next.
QUERY: Query: polyreactivity (PSR sort gate); subject: QVQLVESVGGLVQAGGSLRLSCAASGFIIVEYDMGWYRQAPGKEREFVAAINFSGGSTYYADSVKGRFTISRDNAKNTVYLQMNSLKPEDNAVYYCAADVVRYYYTYYYWGQGTHVTVSS
RESULT: low polyreactivity
